System: MS2 coat protein
Experiment: apparent Kd, MS2 coat protein; higher = weaker binding; RNA-MaP array; tryptophan 2.4 mM where present
Conditions: designed as: ON switch for tryptophan; no ligand
# apparent Kd >= 80 nM gives satisfied, anything below gives not satisfied

seq string: UUACCGUAAGGUAUACCGGUCUACAAUAAUCGAGGACCGGUACGGCCGCCACUCGAUGUGUAAUCACAUGAGGAUCACCCAUGUA
cat: not satisfied

seq string: GCAUCCUAGUCGGCCGCCACUGCAAUUGUAAUACUGCUACAUGAGGAUCACCCAUGUCCAUGUAGCAGGACCGGGACUAGGAUGC
cat: satisfied

seq string: UCGUUUUAGUCGGCCGCCACUGUAUGCAUGUUUAACAUGAGGAUCACCCAUGUCCCGUACUAUUUCAGGACCGGGACGUAAUCGA
cat: satisfied

seq string: GUCUUUGACGAUCUGGGAAAACCAGAUCGACGAGGACCGGUACGGCCGCCACUCGUGUUUUCUUUACAUGAGGAUCACCCAUGUA
cat: not satisfied

seq string: CUACAUGUAGUUAAACCGGUCAACAAUAAUCGAGGACCGGUACGGCCGCCACUCGAUGUGUUAUACACAUGAGGAUCACCCAUGU
cat: not satisfied

seq string: GGUACAUGAGGAUCACCCAUGUAUUGGUACCGAGGACCGGUACGGCCGCCACUCGCAUGACAUGAGGAUCACCCAUGUGAAACCU
cat: not satisfied

seq string: GCUCACAUGAGGAUCACCCAUGUACGUCCGCGAGGACCGGUACGGCCGCCACUCGUGUUAGCUUCAAACUUGUUAGUGUUAAACA
cat: not satisfied

seq string: UAAUAAUUCCUCAUGUCACGAGUGGCAUAACGAGGACCGGUACGGCCGCCACUCGAACAUGAGGAUCACCCAUGUAGCCACUCGA
cat: satisfied

seq string: GGGAGGGAGGCGGCCGCCACUGAUUUUCAUAUAUAUAUAACAUGAGGAUCACCCAUGUGGAUAUACAGGACCGGGCCUUUUUUUU
cat: not satisfied

seq string: GCCGGUACGUCGGCAAAGCCGAUGUGCCAGCGAGGACCGGUACGGCCGCCACUCGUACAUGAGGAUCACCCAUGUCCGGUCCGGC
cat: not satisfied

seq string: GCGGAAUAAUCGGCCGCCACUAUGAGACAGGAAACUGUCACAUGAGGAUCACCCAUGUAUCCUCAUAGGACCGGGAUUAAAACGC
cat: not satisfied
